- Tested on: Mycobacterium tuberculosis
- assay name: Cornell M. t heat shock assay; further: in the data most compounds retested in dose-response had high values
- Assay type: functional, organism-based
- Set-up: dose or concentration left out as unconfirmed
Hit rate of the full screen: of about 69,000 compounds, about 950 (1.4%) showed an effect of 50% or more. This is one part of a sample in which strong results are shown more often than they occur.
observed property: Percent Effect
# do not omit the unit; it follows the number

# annotated cases, reported Percent Effect shown
CN(Cc1nc2ccccc2n1C)CC1CCCN1c1cccnn1 (configuration not stated) ... 101.2%
Cn1c(CCN2CCN(CCc3ccccc3)CC2)nc2ccccc21 ... 5.82%
Cc1nc(C)n(CC2CCCN2Cc2cn3c(C)cccc3n2)n1 (configuration not stated) ... -6.121%
COc1cccc(Nc2nc(-c3ccncc3)nc3c2CNCC3)c1.Cl ... 9.794%
Cc1cccc(CN2CC[C@@H]3[C@@H]2CCN3C(=O)Cc2ccsc2)n1.O=C(O)C(F)(F)F.O=C(O)C(F)(F)F ... -13.99%
CS(=O)(=O)CCC(=O)Nc1cnn(-c2ccccc2Cl)c1 ... -2.43%
CN(C)C(=O)CC1CC2(CCN(Cc3ccsc3)CC2)c2ccccc21.O=C(O)C(F)(F)F (configuration not stated) ... -34.9%
N#Cc1cc(NC(=O)c2ccsc2)ccc1N1CCC(O)CC1 ... 11.62%

Lookup result for CC(C)(C)c1cnc(CNCC2CCCN2c2cccnn2)o1 (configuration not stated) ; measured Percent Effect: -26.2%

Lookup result for CCn1ccnc1CNCC(c1ccc(C)s1)N1CCOCC1 (configuration not stated) ; measured Percent Effect: -18.67%

Lookup result for `O=C(O)C(F)(F)F.O=C(O)C(F)(F)F.c1cc(CN2CCc3ncc(CN4CCCCC4)n3CC2)cs1` ; measured Percent Effect: -20.06%

Lookup result for CN1CCCC(c2cncc(C(=O)NCc3ccccc3Cl)n2)C1.O=CO (configuration not stated) ; measured Percent Effect: 5.616%

Lookup result for `Cc1nc(CO[C@@H]2CN(Cc3nccs3)[C@@H]3COC[C@@H]32)cs1.O=C(O)C(F)(F)F` ; measured Percent Effect: -44.36%

Lookup result for `Cc1nc(CN2CCO[C@@H]3CN(Cc4cccs4)C[C@@H]3C2)cs1.O=C(O)C(F)(F)F.O=C(O)C(F)(F)F` ; measured Percent Effect: -15.47%

Lookup result for `CC(C)N(C)CC(=O)Nc1ccc(-n2ccc(C(N)=O)n2)cc1` ; measured Percent Effect: 4.536%

Lookup result for O=C(NCC(O)c1ccc(F)c(F)c1)c1ccccc1F (configuration not stated) ; measured Percent Effect: -2.812%

Lookup result for `CCOCC(=O)NCCCn1ccnc1-c1ccccc1` ; measured Percent Effect: 0.7963%

Lookup result for `Cc1nc(CN2CCc3ncnc(-c4ccc(F)cc4)c3CC2)cs1.O=C(O)C(F)(F)F` ; measured Percent Effect: -9.802%
